Attribution: patent US20220195666A1

Quick reference: T5% (decomposition temperature of 5% sample) of the listed items.
- assay comment: Thermal gravimetric analysis of the ILs and DSILs
- Type: physicochemical
- conditions: TGA under nitrogen, 10° C./min
Use °C as the unit, but write only the number.

{"columns": ["compound", "readout number"],
 "data": [
  ["CCCCCCCC(=O)[O-].C[N+](C)(C)CCO [[Ch][Oct], cholinium octanoate]", 180.7],
  ["CCCCCCCCCCCCCCCC(=O)[O-].C[N+](C)(C)CCO [[Ch][Pal], cholinium palmitate]", 177.7],
  ["CC(=O)[O-].C[N+](C)(C)CCO [[Ch][Ace], cholinium acetate]", 173.1]
]}

From here, focus on the item given below.
Exam item: Which measured T5% (decomposition temperature of 5% sample) value corresponds to C[N+](C)(C)CCO.NCCCC[C@H](N)C(=O)[O-] [[Ch][Lys], cholinium lysinate] ?
Marked response: 155.9
